test: Solubility over time of rifaximin preparations in phosphate buffer pH 6.8
Format: physicochemical
run_parameters: phosphate buffer, 30 °C, pH 6.8, aqueous buffer, thermodynamic from solid, 30 min; phosphate buffer pH 6.8, 30±0.5° C.; read-out: Solubility over time, Concentration
measured_attribute: solubility at 30 min (µg/mL)
Answers are plain numbers, in µg/mL.

Tell us which solubility at 30 min value is on record for "CO[C@H]1/C=C/O[C@@]2(C)Oc3c(C)c(O)c4c(O)c(c5c(nc6cc(C)ccn65)c4c3C2=O)NC(=O)/C(C)=C\C=C\[C@H](C)[C@H](O)[C@@H](C)[C@@H](O)[C@@H](C)[C@H](OC(C)=O)[C@@H]1C" 28.7
